These data points were gathered from patent US12281155.

# target.or.test.system: T1, recombinant SARS-CoV-2 Spike RBD domain, XBB.1.16 variant (SARS-CoV-2)
# T1 construct: also called RBD XBB.1.16 variant
# protocol.summary: competition ELISA, blocking of RBD binding to ACE2 ectodomain
Here, each record is paired with measured Blocking % data.
Dear colleague, please return just the value in %, with no unit written.

Sample records with Blocking %:
# binder, Blocking % (%)
records = [
    ("SPK002M B1 antibody (antibody, human IgG1, kappa, V domains shown) VH: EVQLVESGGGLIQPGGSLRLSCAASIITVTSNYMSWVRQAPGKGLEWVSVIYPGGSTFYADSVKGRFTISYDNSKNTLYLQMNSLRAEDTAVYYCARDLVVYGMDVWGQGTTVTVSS VL: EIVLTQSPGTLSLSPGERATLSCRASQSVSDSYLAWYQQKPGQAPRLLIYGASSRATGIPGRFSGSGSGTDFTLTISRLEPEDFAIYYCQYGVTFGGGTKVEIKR", 97),
    ("SPK002M B2 antibody (antibody, human IgG1, kappa, V domains shown) VH: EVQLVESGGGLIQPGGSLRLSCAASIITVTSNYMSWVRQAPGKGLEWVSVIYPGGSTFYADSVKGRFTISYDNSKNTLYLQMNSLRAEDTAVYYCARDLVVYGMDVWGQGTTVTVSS VL: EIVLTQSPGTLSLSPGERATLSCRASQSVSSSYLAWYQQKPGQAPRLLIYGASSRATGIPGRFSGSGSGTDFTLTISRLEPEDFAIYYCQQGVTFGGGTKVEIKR", 92),
    ("SPK002M A4 antibody (antibody, human IgG1, kappa, V domains shown) VH: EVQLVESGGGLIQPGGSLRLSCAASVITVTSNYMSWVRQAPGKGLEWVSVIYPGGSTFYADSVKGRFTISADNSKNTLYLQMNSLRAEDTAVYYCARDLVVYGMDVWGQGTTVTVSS VL: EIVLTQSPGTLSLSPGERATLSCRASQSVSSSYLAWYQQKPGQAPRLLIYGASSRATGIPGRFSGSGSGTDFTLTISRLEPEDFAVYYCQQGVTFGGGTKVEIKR", 95),
    ("SPK002M C1 antibody (antibody, human IgG1, kappa, V domains shown) VH: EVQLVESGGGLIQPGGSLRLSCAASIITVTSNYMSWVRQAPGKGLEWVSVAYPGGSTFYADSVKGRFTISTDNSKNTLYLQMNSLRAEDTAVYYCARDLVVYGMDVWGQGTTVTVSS VL: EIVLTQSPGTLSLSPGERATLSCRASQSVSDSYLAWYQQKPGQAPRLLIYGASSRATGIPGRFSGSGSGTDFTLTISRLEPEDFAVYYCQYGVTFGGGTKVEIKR", 96),
]

Would you kindly share the measured Blocking % for SPK002M C2 antibody (antibody, human IgG1, kappa, V domains shown) VH: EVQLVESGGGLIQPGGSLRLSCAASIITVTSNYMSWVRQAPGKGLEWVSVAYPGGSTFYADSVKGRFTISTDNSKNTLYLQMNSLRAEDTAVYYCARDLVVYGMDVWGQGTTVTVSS VL: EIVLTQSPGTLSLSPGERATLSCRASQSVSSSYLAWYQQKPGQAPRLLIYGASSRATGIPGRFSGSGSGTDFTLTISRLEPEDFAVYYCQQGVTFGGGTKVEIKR ?
93

Then this binder: SPK002M A2 antibody (antibody, human IgG1, kappa, V domains shown) VH: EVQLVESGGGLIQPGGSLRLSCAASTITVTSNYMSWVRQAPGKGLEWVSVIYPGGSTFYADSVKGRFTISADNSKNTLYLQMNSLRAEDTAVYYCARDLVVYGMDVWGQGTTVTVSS VL: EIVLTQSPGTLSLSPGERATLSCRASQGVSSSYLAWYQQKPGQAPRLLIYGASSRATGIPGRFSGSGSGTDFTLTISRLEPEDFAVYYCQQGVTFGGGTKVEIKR
96

Lookup SPK002M A3 antibody (antibody, human IgG1, kappa, V domains shown) VH: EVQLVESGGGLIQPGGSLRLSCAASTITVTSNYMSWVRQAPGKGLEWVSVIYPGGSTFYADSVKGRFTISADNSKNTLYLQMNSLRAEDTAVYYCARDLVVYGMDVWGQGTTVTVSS VL: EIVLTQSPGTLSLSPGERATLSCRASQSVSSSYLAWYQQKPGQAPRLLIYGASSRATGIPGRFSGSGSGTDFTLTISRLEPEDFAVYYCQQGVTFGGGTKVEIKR
95

Try SPK002M A5 antibody (antibody, human IgG1, kappa, V domains shown) VH: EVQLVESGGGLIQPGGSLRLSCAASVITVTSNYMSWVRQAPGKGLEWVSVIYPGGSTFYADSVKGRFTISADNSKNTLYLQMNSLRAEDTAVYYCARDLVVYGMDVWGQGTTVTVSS VL: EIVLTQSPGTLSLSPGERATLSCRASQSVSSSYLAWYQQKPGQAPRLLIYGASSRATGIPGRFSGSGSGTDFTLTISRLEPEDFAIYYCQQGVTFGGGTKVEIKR next.
95

Another binder to look at: SPK002M C3 antibody (antibody, human IgG1, kappa, V domains shown) VH: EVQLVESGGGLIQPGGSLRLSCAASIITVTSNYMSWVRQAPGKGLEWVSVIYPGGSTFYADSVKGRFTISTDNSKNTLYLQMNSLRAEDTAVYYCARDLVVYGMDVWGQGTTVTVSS VL: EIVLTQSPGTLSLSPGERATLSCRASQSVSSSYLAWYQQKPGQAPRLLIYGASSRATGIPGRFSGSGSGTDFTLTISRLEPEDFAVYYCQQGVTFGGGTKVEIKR
90

Another binder to look at: SPK002M A1 antibody (antibody, human IgG1, kappa, V domains shown) VH: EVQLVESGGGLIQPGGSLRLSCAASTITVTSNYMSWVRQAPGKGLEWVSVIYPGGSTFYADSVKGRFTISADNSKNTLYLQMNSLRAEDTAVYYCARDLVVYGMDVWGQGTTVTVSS VL: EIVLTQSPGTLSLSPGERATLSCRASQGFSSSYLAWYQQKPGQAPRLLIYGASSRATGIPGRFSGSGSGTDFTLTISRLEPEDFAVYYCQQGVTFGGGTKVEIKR
97
